Test: total protein half-life in vivo (active degradation + dilution); higher = more stable protein
Conditions: wild type E. coli NCM3722; growth: P-lim chemostat; doubling time 12 h
Hi there, I'd appreciate the recorded total protein half-life in vivo for every entry that follows.
Give the number; h is assumed, so skip it.

Given the entry `MTLTASSSSRAVTNSPVVVALDYHNRDDALAFVDKIDPRDCRLKVGKEMFTLFGPQFVRELQQRGFDIFLDLKFHDIPNTAAHAVAAAADLGVWMVNVHASGGARMMTAAREALVPFGKDAPLLIAVTVLTSMEASDLVDLGMTLSPADYAERLAALTQKCGLDGVVCSAQEAVRFKQVFGQEFKLVTPGIRPQGSEAGDQRRIMTPEQALSAGVDYMVIGRPVTQSVDPAQTLKAINASLQRSA` , report its measured total protein half-life in vivo.
10.2

Note, next up: MATIKDVAKRANVSTTTVSHVINKTRFVAEETRNAVWAAIKELHYSPSAVARSLKVNHTKSIGLLATSSEAAYFAEIIEAVEKNCFQKGYTLILGNAWNNLEKQRAYLSMMAQKRVDGLLVMCSEYPEPLLAMLEEYRHIPMVVMDWGEAKADFTDAVIDNAFEGGYMAGRYLIERGHREIGVIPGPLERNTGAGRLAGFMKAMEEAMIKVPESWIVQGDFEPESGYRAMQQILSQPHRPTAVFCGGDIMAMGALCAADEMGLRVPQDVSLIGYDNVRNARYFTPALTTIHQPKDSLGETAFNMLLDRIVNKREEPQSIEVHPRLIERRSVADGPFRDYRR [P0ACP7]
10.9

Item: MKPSSSNSRSKGHAKARRKTREELDQEARDRKRQKKRRGHAPGSRAAGGNTTSGSKGQNAPKDPRIGSKTPIPLGVTEKVTKQHKPKSEKPMLSPQAELELLETDERLDALLERLEAGETLSAEEQSWVDAKLDRIDELMQKLGLSYDDDEEEEEDEKQEDMMRLLRGN [P0A8H6]
5.38

Please do the same for MEKEQLIEIANTIMPFGKYKGRRLIDLPEEYLLWFARKDEFPAGKLGELMQITLLIKTEGLTQLVQPLKRPL [P0AD40] as well.
8.7

# repeat for MFILWYSASSTFGKDSDIVMGVRAQQKEKTRRSLVEAAFSQLSAERSFASLSLREVAREAGIAPTSFYRHFRDVDELGLTMVDESGLMLRQLMRQARQRIAKGGSVIRTSVSTFMEFIGNNPNAFRLLLRERSGTSAAFRAAVAREIQHFIAELADYLELENHMPRAFTEAQAEAMVTIVFSAGAEALDVGVEQRRQLEERLVLQLRMISKGAYYWYRREQEKTAIIPGNVKDE [P0ACU5]
10.9

Another sequence to check: `MNMKKLATLVSAVALSATVSANAMAKDTIALVVSTLNNPFFVSLKDGAQKEADKLGYNLVVLDSQNNPAKELANVQDLTVRGTKILLINPTDSDAVGNAVKMANQANIPVITLDRQATKGEVVSHIASDNVLGGKIAGDYIAKKAGEGAKVIELQGIAGTSAARERGEGFQQAVAAHKFNVLASQPADFDRIKGLNVMQNLLTAHPDVQAVFAQNDEMALGALRALQTAGKSDVMVVGFDGTPDGEKAVNDGKLAATIAQLPDQIGAKGVETADKVLKGEKVQAKYPVDLKLVVKQ`
11.5

----------
Assay: total protein half-life in vivo (active degradation + dilution); higher = more stable protein
Details: E. coli NCM3722 delta-clpP delta-lon delta-hslV; growth: N-lim chemostat; doubling time 6 h
Quantity Measured: total protein half-life in vivo (h)
A number alone suffices; assume h.

Look at this sequence and give its reported total protein half-life in vivo. MIKKIGVLTSGGDAPGMNAAIRGVVRSALTEGLEVMGIYDGYLGLYEDRMVQLDRYSVSDMINRGGTFLGSARFPEFRDENIRAVAIENLKKRGIDALVVIGGDGSYMGAMRLTEMGFPCIGLPGTIDNDIKGTDYTIGFFTALSTVVEAIDRLRDTSSSHQRISVVEVMGRYCGDLTLAAAIAGGCEFVVVPEVEFSREDLVNEIKAGIAKGKKHAIVAITEHMCDVDELAHFIEKETGRETRATVLGHIQRGGSPVPYDRILASRMGAYAIDLLLAGYGGRCVGIQNEQLVHHDIIDAIENMKRPFKGDWLDCAKKLY [P0A796]
4.43

Try the sequence `MDINNKARIHWACRRGMRELDISIMPFFEHEYDSLSDDEKRIFIRLLECDDPDLFNWLMNHGKPADAELEMMVRLIQTRNRERGPVAI`
5.79

// repeat for `MCGRFAQSQTREDYLALLAEDIERDIPYDPEPIGRYNVAPGTKVLLLSERDEHLHLDPVFWGYAPGWWDKPPLINARVETAATSRMFKPLWQHGRAICFADGWFEWKKEGDKKQPFFIYRADGQPIFMAAIGSTPFERGDEAEGFLIVTAAADQGLVDIHDRRPLVLSPEAAREWMRQEISGKEASEIAASGCVPANQFSWHPVSRAVGNVKNQGAELIQPV` and report
4.83

Cool, now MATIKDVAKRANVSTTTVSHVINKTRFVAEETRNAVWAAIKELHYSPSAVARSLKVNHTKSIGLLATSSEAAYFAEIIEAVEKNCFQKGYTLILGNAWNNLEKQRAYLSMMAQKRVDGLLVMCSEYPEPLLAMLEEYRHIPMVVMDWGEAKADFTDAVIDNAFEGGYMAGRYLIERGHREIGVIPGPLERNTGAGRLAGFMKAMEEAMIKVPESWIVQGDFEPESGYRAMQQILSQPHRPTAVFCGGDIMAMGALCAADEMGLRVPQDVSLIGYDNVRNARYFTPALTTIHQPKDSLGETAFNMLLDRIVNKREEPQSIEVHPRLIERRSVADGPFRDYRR [P0ACP7]
5.38

// next record MALLNVDKLSVHFGDESAPFRAVDRISYSVKQGEVVGIVGESGSGKSVSSLAIMGLIDYPGRVMAEKLEFNGQDLQRISEKERRNLVGAEVAMIFQDPMTSLNPCYTVGFQIMEAIKVHQGGNKSTRRQRAIDLLNQVGIPDPASRLDVYPHQLSGGMSQRVMIAMAIACRPKLLIADEPTTALDVTIQAQIIELLLELQQKENMALVLITHDLALVAEAAHKIIVMYAGQVVETGDAHAIFHAPRHPYTQALLRALPEFAQDKERLASLPGVVPGKYDRPNGCLLNPRCPYATDRCRAEEPALNMLADGRQSKCHYPLDDAGRPTL [P0AAG0]
6.72

Also need MSHLKDPTTQYYTGEYPKQKQPTPGIQAKMTPVPDCGEKTYVGSGRLKDRKALVTGGDSGIGRAAAIAYAREGADVAISYLPVEEEDAQDVKKIIEECGRKAVLLPGDLSDEKFARSLVHEAHKALGGLDIMALVAGKQVAIPDIADLTSEQFQKTFAINVFALFWLTQEAIPLLPKGASIITTSSIQAYQPSPHLLDYAATKAAILNYSRGLAKQVAEKGIRVNIVAPGPIWTALQISGGQTQDKIPQFGQQTPMKRAGQPAELAPVYVYLASQESSYVTAEVHGVCGGEHLG [P0AG84] , thanks.
5.31

Follow-up entry: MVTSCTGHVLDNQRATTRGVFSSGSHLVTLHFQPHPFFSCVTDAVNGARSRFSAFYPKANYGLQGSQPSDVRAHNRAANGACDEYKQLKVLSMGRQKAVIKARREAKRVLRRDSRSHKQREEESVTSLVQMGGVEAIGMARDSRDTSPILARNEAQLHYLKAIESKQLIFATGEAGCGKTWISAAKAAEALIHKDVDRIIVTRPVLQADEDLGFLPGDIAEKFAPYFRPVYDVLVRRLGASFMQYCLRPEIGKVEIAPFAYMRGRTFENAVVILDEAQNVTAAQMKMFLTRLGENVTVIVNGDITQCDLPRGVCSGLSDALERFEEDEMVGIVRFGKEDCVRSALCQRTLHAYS [P0A9K1]
5.82

Now try MNISDVAKITGLTSKAIRFYEEKGLVTPPMRSENGYRTYTQQHLNELTLLRQARQVGFNLEESGELVNLFNDPQRHSADVKRRTLEKVAEIERHIEELQSMRDQLLALANACPGDDSADCPIIENLSGCCHHRAG [P0A9G4] .
4.71

Also MRRTFTAEEKASVFELWKNGTGFSEIANILGSKPGTIFTMLRDTGGIKPHERKRAVAHLTLSEREEIRAGLSAKMSIRAIATALNRSPSTISREVQRNRGRRYYKAVDANNRANRMAKRPKPCLLDQNLPLRKLVLEKLEMKWSPEQISGWLRRTKPRQKTLRISPETIYKTLYFRSREALHHLNIQHLRRSHSLRHGRRHTRKGERGTINIVNGTPIHERSRNIDNRRSLGHWEGDLVSGTKNSHIATLVDRKSRYTIILRLRGKDSVSVNQALTDKFLSLPSELRKSLTWDRGMELARHLEFTVSTGVKVYFCDPQSPWQRGTNENTNGLIRQYFPKKTCLAQYTQHELDLVAAQLNNRPRKTLKFKTPKEIIERGVALTD [P0CF90] ?
5.45

Let us now turn to `MKLSRISAINWNKISDDKDLEVWNRLTSNFWLPEKVPLSNDIPAWQTLTVVEQQLTMRVFTGLTLLDTLQNVIGAPSLMPDALTPHEEAVLSNISFMEAVHARSYSSIFSTLCQTKDVDAAYAWSEENAPLQRKAQIIQQHYRGDDPLKKKIASVFLESFLFYSGFWLPMYFSSRGKLTNTADLIRLIIRDEAVHGYYIGYKYQKNMEKISLGQREELKSFAFDLLLELYDNELQYTDELYAETPWADDVKAFLCYNANKALMNLGYEPLFPAEMAEVNPAILAALSPNADENHDFFSGSGSSYVMGKAVETEDEDWNF`
3.43
